Listed here are compounds together with their documented growth.
System: NCI-H522 lung
Test: NCI-60 one-dose screen, 48 h (100 = growth as untreated, 0 = no growth, -100 = all killed)
Conditions: 10 µM unless noted
The panel holds about 83,000 compounds, 20% with a hit somewhere; the sample as a whole holds those more often.
Your answer is read as %, so omit the unit and give the number.

Past entries and their recorded results:
{"columns": ["Compound", "growth (%)"],
 "data": [
  ["Cc1ccc(S(=O)(=O)c2nc(-c3ccccc3)oc2Sc2nc3ccccc3s2)cc1", 54.1],
  ["N#CC1=C(N)Oc2ccc3ccccc3c2C1c1ccc([N+](=O)[O-])cc1 (configuration not stated)", 73.5],
  ["O=c1c2c3c(sc2n2c(-c4cc(-c5ccccc5)no4)nnc2n1Cc1ccccc1)CCCC3", 55.2],
  ["CN(C)c1ccc(-c2ccc3c(c2)c(-c2ccccc2)nc(=O)n3C)cn1", 7.96],
  ["O=C1/C(=C2\\SC(=S)N(C3CC3)C2=O)SC(=S)N1C1CC1", 91.9]
]}

// lookup growth for COc1cnc2c(c1)C(=O)c1c-2n(CCCCl)c(=O)c2ccncc12 26.7

Which growth value is on record for CN1CCN(c2ccc3nc4c(nc3c2C(F)(F)F)C(=O)c2ncccc2C4=O)CC1 ? -67.5

Can you share its growth? I mean this compound: COc1cccc(Nc2ncnc3cc(NC(=O)CCl)ccc23)c1 -77.4

GET /values?readout=growth&item= COc1ccc(-c2cc(-c3ccccc3)nc(N3CCN(CCNc4ccnc5cc(Cl)ccc45)CC3)n2)cc1 2.04

For the compound shown here, Cc1ccc(C(=O)Nc2cccc(C#Cc3cccc4[nH]nc(N)c34)c2)cc1C(F)(F)F , give the reported growth. 60.2

For the compound CC(C)CCN(CCC(C)C)CC(O)c1cc2c(c3ccccc13)CCCC2 (configuration not stated) , what growth is on record? 56.7

Please give the measured growth for this compound: O=C(CCl)NNc1nccc(Nc2ccc(S(=O)(=O)Nc3ccncc3)cc2)n1 -42.9

I would be grateful if you could share the reported growth for COc1ccc(Nc2ncccc2/C=C/C(=O)c2cc(OC)c(OC)c(OC)c2)cc1 . -76.5

Can you share its growth? I mean this compound: CN(C)c1ccc(/C=C(\C#N)c2cc3ccccc3[nH]2)cc1 -9.55

Need growth of C=C1CC[C@@H]2C(C)(C)[C@@H](O)CC[C@@]2(C)[C@@H]1COc1ccc2ccc(=O)oc2c1 , thanks. 66.9

For CCn1c(-c2cc3c([nH]c4ccccc43)c(-c3cccc(O)c3)n2)n[nH]c1=S , what is its reported growth? -10.6
